Experiment: Example 5: plasma pharmacokinetics of EN3202 20 mg in hepatic impairment vs healthy controls
Details: human, plasma, oral, 20 mg, AUCT, Healthy Controls; mean (SD)
measured.quantity: AUC(0-t) (ng·h/mL)

>  <compound>
CN1CC[C@]23c4c5ccc(O)c4O[C@H]2C(=O)CC[C@@]3(O)[C@H]1C5.Cl [Oxymorphone]

>  <measured.quantity>
AUC(0-t)

>  <reading>
18

$$$$

###

Experiment: Example 5: plasma pharmacokinetics of EN3202 20 mg in hepatic impairment vs healthy controls
Conditions: human, plasma, oral, 20 mg, Tmax, Healthy Controls; median (range)

>  <compound>
CN1CC[C@]23c4c5ccc(O)c4O[C@H]2C(=O)CC[C@@]3(O)[C@H]1C5.Cl [Oxymorphone]

>  <Tmax (h)>
3.5

$$$$
